Data provenance: patent US6770596B1

test system: field corn (Zea mays L., var. Dekalb 535, CORN); test: Post-emerge test, crop damage field corn; assay type: in vivo; conditions: post-emerge, 250 g ai/ha, 14 days after application, rating scale 0-100 (0 no damage, 100 complete death)
assay.endpoint: Post-emerge crop damage CORN (phytotoxicity rating)
Enter the number alone.

compound	reported.measurement
O=C1CN2C(=O)COc3cc(F)c(-c4ncc(C(F)(F)F)cc4Cl)c(c32)N1 [1-63]	20

Post-emerge crop damage CORN (phytotoxicity rating) reported for this compound CC1Oc2cc(F)c(-c3nn(C)c(C(F)(F)F)c3Cl)c3c2N(C1=O)C(C)C(=O)N3 (mixture of isomers) [1-50] : 20

Post-emerge crop damage CORN (phytotoxicity rating) reported for this compound CC1Oc2cc(F)c(-c3nn(C)c(OC(F)F)c3Cl)c3c2N(CC(=O)N3)C1=O (stereo not drawn) [1-56] : 20
